# experimental_details: In vitro kinetic solubility
# stated_conditions: In vitro kinetic solubility, ph 7.4
Please note: yes applies when solubility_mean is 200 µM or greater, and no applies otherwise.

>  <molecule>
CNC(=O)c1c[nH]c2ncnc(N[C@H](c3ccc4c(c3)NC(=O)CO4)C(C)C)c12 (racemic)

>  <class>
no

$$$$
>  <molecule>
CC(C)[C@H](Nc1ncnc2[nH]c(C(=O)N[C@@H]3CCN(C)C3)cc12)c1ccc2c(c1)S(=O)(=O)CCC2

>  <class>
yes

$$$$
>  <molecule>
CC(C(=O)O)C(NC(=O)c1ncnc2[nH]ccc12)c1ccc(Br)cc1 (mixture of isomers)

>  <class>
yes

$$$$
>  <molecule>
CC(C)[C@H](Nc1ncnc2[nH]c(-c3cnn(CC(N)=O)c3)cc12)c1ccc2c(c1)NC(=O)CO2 (racemic)

>  <class>
no

$$$$
>  <molecule>
CC(C)[C@H](Nc1ncnc2[nH]c(-c3cnn(CC(=O)N(C)C)c3)cc12)c1ccc2c(c1)OCCO2 (single isomer, unassigned) [ASAP-0013833]

>  <class>
no

$$$$
>  <molecule>
COc1ccc2c(c1)CCN(c1ncnc3[nH]ccc13)[C@H]2C(C)C (racemic)

>  <class>
no

$$$$
>  <molecule>
COc1ccc([C@H](Cc2nnn[nH]2)NC(=O)c2ncnc3[nH]ccc23)cc1

>  <class>
yes

$$$$
>  <molecule>
O=C(Nc1cccc2c(C(=O)N[C@H]3c4ccccc4C[C@H]3C(=O)O)c[nH]c12)NC1CC1 (racemic)

>  <class>
yes

$$$$
>  <molecule>
CNC(=O)c1cc2c(N[C@@H](c3ccc4c(c3)OCCO4)C(C)C)ncnc2[nH]1

>  <class>
yes

$$$$
>  <molecule>
CC(C)[C@@H](Nc1ncnc2[nH]c(-c3cnn(C)c3C#N)cc12)c1ccc2c(c1)OCCO2 (racemic) [ASAP-0008275]

>  <class>
no

$$$$
>  <molecule>
CC(C)[C@H](Nc1ncnc2[nH]c(-c3cnn(C)c3C#N)cc12)c1ccc2c(c1)NC(=O)CO2 (single isomer, unassigned) [ASAP-0013256]

>  <class>
no

$$$$
>  <molecule>
Cn1ncc(-c2cc3c(N[C@@H](c4ccc5c(c4)OCCO5)C(C)(C)C)ncnc3[nH]2)c1C#N (racemic)

>  <class>
no

$$$$
>  <molecule>
CC(C)[C@H](Nc1ncnc2[nH]c(-c3cnn(C)c3C#N)cc12)c1ccc2c(c1)S(=O)(=O)CCC2 (single isomer, unassigned)

>  <class>
no

$$$$
>  <molecule>
CC(C)[C@@H](Nc1ncnc2[nH]c(-c3ccc4cncn4c3)cc12)c1ccc2c(c1)S(=O)(=O)CCC2

>  <class>
no

$$$$
>  <molecule>
CC(C)[C@@H](Nc1ncnc2[nH]c(-c3cnn(C)c3C#N)cc12)c1ccc2c(n1)NC(=O)CO2 [ASAP-0008644]

>  <class>
no

$$$$
>  <molecule>
CC(C)[C@@H](Nc1ncnc2[nH]c(-c3cnn(C)c3C#N)cc12)c1ccc2c(n1)NC(=O)CO2 (single isomer, unassigned) [ASAP-0011180]

>  <class>
no

$$$$
>  <molecule>
COc1ccc([C@H](CC(=O)O)NC(=O)c2ncnc3[nH]ccc23)cc1 (racemic)

>  <class>
yes

$$$$
>  <molecule>
CC(C)[C@@H](Nc1ncnc2[nH]ccc12)c1ccc2c(c1)S(=O)(=O)CCO2

>  <class>
yes

$$$$
>  <molecule>
CCNC(=O)c1cc2c(N[C@H](c3ccc4c(c3)S(=O)(=O)CCC4)C(C)C)ncnc2[nH]1 [ASAP-0012325]

>  <class>
yes

$$$$
>  <molecule>
C[C@H](C(=O)O)[C@@H](NC(=O)c1ncnc2[nH]ccc12)c1ccc(Br)cc1

>  <class>
yes

$$$$
>  <molecule>
CC(C)[C@H](Nc1ncnc2[nH]c(-c3cnn(CC(N)=O)c3)cc12)c1ccc2c(c1)S(=O)(=O)CCC2 (racemic) [ASAP-0008679]

>  <class>
yes

$$$$
>  <molecule>
CC(C)[C@H](Nc1ncnc2[nH]c(-c3cnn(CC(N)=O)c3)cc12)c1ccc2c(c1)S(=O)(=O)CCC2 (single isomer, unassigned) [ASAP-0011428]

>  <class>
yes

$$$$
>  <molecule>
CNC(=O)c1cc2c(N[C@@H](c3ccc4c(c3)NC(=O)CO4)C(C)C)ncnc2[nH]1 [ASAP-0008571]

>  <class>
yes

$$$$
>  <molecule>
CCNC(=O)c1cc2c(N[C@@H](c3ccc4c(c3)S(=O)(=O)CCO4)C(C)C)ncnc2[nH]1 (racemic)

>  <class>
yes

$$$$
>  <molecule>
CC(C)[C@H](Nc1ncnc2[nH]ccc12)c1ccc2c(c1)NC(=O)CO2

>  <class>
yes

$$$$
>  <molecule>
CCNC(=O)c1cc2c(N[C@@H](c3ccc4c(c3)S(=O)(=O)NCC4)C(C)C)ncnc2[nH]1

>  <class>
yes

$$$$
>  <molecule>
CC(C)[C@@H](Nc1ncnc2[nH]c(-c3cnn(C)c3C#N)cc12)c1ccc2c(c1)OCCO2 [ASAP-0011033]

>  <class>
no

$$$$
>  <molecule>
CC(C)[C@@H](Nc1ncnc2[nH]c(-c3cnn(CCC(N)=O)c3)cc12)c1ccc2c(c1)OCCO2

>  <class>
yes

$$$$
